Quick reference for melting point among some compounds

Cc1cccc2c1S(=O)(=O)NC(C1CCCCC1)N2 (stereo not given) = 228 to 230 °C
COC(=O)CCCc1cc2cc(Cl)ccc2n1S(=O)(=O)c1ccc(F)c([N+](=O)[O-])c1 = 93 °C
O=C(NCCCC[C@H](NC(=O)OCc1ccccc1)C(=O)Nc1ccc(-c2ccc(C(=O)O)c(=O)[nH]2)cc1)OCc1ccccc1 = 199 to 200 °C
CC(=CCc1c(C)nc(N)nc1Cl)c1cc(Cl)ccc1Cl = 97 to 100 °C

Now examine the next entry.
Given the compound O=C(N[C@@H](Cc1ccc2ccccc2c1)[C@H]1CO1)OCc1ccccc1 , what is its reported melting point?
115 to 116 °C
